Data credit: patent US20260174875A1

Recorded pEC50 for the following substances
target: human amylin receptor (hAMYR3) (Homo sapiens, UniProt O60896+P30988); construct: host or cells: BHK cells (Hollex-1 line expressing hCTR(a) and CRE-Luc), further transfected with human RAMP3; assay: Amylin receptor assay, method A (CRE-luciferase reporter, BHK cells); format: cell-based; conditions: method A, absence of HSA; read-out: hAMYR3 Potency, no HSA, EC50
Sequence (P30988 25-474): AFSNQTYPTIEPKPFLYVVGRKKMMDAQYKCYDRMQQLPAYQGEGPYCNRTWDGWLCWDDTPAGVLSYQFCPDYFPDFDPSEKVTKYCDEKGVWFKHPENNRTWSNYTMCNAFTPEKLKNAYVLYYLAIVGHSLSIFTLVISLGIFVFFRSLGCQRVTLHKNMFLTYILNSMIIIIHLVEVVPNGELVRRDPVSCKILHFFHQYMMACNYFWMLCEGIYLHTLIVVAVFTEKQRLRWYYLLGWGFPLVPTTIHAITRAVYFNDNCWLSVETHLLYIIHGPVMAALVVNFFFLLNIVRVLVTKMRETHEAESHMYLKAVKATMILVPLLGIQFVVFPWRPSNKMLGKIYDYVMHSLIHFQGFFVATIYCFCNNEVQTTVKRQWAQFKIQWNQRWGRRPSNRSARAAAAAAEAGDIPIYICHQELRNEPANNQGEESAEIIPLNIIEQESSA
Sequence (O60896 24-148): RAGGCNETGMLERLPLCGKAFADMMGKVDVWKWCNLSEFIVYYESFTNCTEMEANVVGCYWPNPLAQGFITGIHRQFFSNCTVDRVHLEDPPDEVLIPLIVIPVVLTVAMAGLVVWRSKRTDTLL
Numbered stars: 1 amine (or outer) side, 2 acyl side, 3 side chain; on linkers, the order of the positions; unused ones are H or OH. Square brackets hold non-standard residues; d marks the D form. Side chains are listed from the residue outwards. * marks the point of attachment. C18 diacid = O=C(O)CCCCCCCCCCCCCCCCC(=O)*; γGlu = O=C(O)[C@H](CCC(=O)[*:2])N[*:1]; AEEA = NCCOCCOCC(=O)O; Aib = CC(C)(N)C(=O)O
# log scale: pEC50 equals minus log10 of the concentration in mol/L

Here is how some substances turned out for pEC50.
{"substance": "H[Aib]HGTFTSDYSILLEEQAAREFIEWLLAGGPSSGEASHLSTAQTQRLSAELHRLATLPK([AEEA-AEEA-γGlu-C18 diacid])TETGSGSP-NH2 [Compound 84]", "measured_number": 11.36}
{"substance": "H[Aib]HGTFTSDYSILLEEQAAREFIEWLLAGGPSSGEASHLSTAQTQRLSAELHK([AEEA-AEEA-γGlu-C18 diacid])LATLPRTETGSGAP-NH2 [Compound 85]", "measured_number": 11.36}

Task: Tell me measured pEC50 for H[Aib]HGTFTSDYSILLEEQAAREFIEWLLAGGPSSGEASHLSTAALGRLSAELHK([AEEA-AEEA-γGlu-C18 diacid])LATLPRTETGSGSP-NH2 [Compound 88] please.
Result: 11.43
